Cited source for all entries: ChEMBL document CHEMBL1955751

tested_system: Mitogen-activated protein kinase 1 (Homo sapiens)
test_name: Inhibition of ERK2 assessed as residual activity at 5 uM

mol_smiles: O=C(O)COc1cccc(CCCNC(=O)c2ccc(O)c3[nH]c(-c4ccc(Cl)cc4)nc23)c1
Activity / %: 104
--
mol_smiles: CS(=O)(=O)Nc1ccc(CCNC(=O)c2ccc(O)c3[nH]c(-c4ccc(F)cc4F)nc23)cc1
Activity / %: 91.4
--
mol_smiles: O=C(NCCCn1cnc(Cl)c1Cl)c1ccc(O)c2[nH]c(-c3ccc(Cl)cc3Cl)nc12
Activity / %: 102
--
mol_smiles: O=C(NCCCn1cnc(Cl)c1Cl)c1ccc(O)c2[nH]c(-c3ccco3)nc12
Activity / %: 70.6
--
mol_smiles: O=C(NCCCn1ccnc1)c1ccc(O)c2[nH]c(-c3ccc(F)c(Cl)c3)nc12
Activity / %: 76
--
mol_smiles: CCN1CCN(C(=O)c2ccc(CCNC(=O)c3ccc(O)c4[nH]c(-c5cccs5)nc34)cc2)CC1
Activity / %: 80.7
